Listed next: entries and their corresponding AC50.
Target sequence: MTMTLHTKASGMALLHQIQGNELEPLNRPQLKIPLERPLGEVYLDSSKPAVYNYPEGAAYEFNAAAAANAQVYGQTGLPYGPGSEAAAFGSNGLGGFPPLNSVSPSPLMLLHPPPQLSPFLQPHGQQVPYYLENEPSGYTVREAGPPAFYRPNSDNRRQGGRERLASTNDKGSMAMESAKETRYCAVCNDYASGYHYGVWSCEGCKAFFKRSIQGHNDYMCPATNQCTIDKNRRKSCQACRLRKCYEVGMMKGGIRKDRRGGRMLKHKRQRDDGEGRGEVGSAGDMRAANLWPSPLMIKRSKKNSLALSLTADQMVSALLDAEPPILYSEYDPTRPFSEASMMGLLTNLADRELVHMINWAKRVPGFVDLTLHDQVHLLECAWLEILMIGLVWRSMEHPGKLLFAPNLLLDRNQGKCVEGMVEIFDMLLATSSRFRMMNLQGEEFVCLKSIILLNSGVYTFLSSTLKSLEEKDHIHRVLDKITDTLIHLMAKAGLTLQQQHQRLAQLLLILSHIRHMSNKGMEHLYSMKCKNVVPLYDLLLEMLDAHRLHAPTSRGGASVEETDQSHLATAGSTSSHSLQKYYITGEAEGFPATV
QUANTITY_KIND: AC50

[[record]]
compound = "Cc1cc(N)c2ccccc2[n+]1CCCCCCCCCC[n+]1c(C)cc(N)c2ccccc21"
quantity_kind = "AC50"
observed_value = "20.8 µM"

[[record]]
compound = "Nc1c2ccccc2nc2ccccc12"
quantity_kind = "AC50"
observed_value = "> 30 µM"

[[record]]
compound = "OC[C@@H](O)[C@@H](O)[C@H](O)[C@@H](O)CO"
quantity_kind = "AC50"
observed_value = "> 30 µM"

[[record]]
compound = "CCCC(CCC)C(=O)O"
quantity_kind = "AC50"
observed_value = "> 30 µM"

[[record]]
compound = "COc1cc2nccc(Oc3ccc(NC(=O)C4(C(=O)Nc5ccc(F)cc5)CC4)cc3)c2cc1OC [CABOZANTINIB]"
quantity_kind = "AC50"
observed_value = "> 30 µM"

[[record]]
compound = "CCN(CC)C(=S)S"
quantity_kind = "AC50"
observed_value = "> 30 µM"


---

molecular target: D(1A) dopamine receptor (Homo sapiens); type: functional, cell-based; further: assay procedure not described here
Sequence (P21728 whole entry): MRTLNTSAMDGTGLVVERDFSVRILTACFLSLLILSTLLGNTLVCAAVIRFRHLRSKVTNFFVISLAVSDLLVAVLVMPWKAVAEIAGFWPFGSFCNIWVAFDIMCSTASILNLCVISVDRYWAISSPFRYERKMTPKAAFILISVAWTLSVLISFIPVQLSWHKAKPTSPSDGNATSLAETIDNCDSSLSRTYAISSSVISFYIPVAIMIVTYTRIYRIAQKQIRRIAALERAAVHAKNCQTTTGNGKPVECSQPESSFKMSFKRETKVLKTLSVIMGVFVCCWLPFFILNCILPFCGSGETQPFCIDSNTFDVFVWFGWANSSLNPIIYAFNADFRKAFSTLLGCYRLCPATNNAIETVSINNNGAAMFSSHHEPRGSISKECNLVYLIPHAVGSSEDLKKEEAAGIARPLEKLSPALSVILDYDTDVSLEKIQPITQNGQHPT
Listed next: entries and their corresponding AC50.
QUANTITY_KIND: AC50

[[record]]
molecule = "O=C1CN=C(c2ccccn2)c2cc(Br)ccc2N1 [BROMAZEPAM]"
observed_value = "> 10 µM"

[[record]]
molecule = "CCOC(=O)C1=C[C@]2(CC)CCCN3CCc4c(n1c1ccccc41)[C@@H]32 [VINPOCETINE]"
observed_value = "> 30 µM"

[[record]]
molecule = "COc1cc2nc(N3CCN(C(=O)C4CCCO4)CC3)nc(N)c2cc1OC (stereo unspecified) [TERAZOSIN]"
observed_value = "> 10 µM"

[[record]]
molecule = "CC(C(=O)O)c1ccc(CC2CCCC2=O)cc1 (stereo unspecified) [LOXOPROFEN]"
observed_value = "> 30 µM"

[[record]]
molecule = "CN1CCC(=C2c3ccccc3CCc3cccnc32)CC1 [AZATADINE]"
observed_value = "> 10 µM"

[[record]]
molecule = "CN(C)CCc1c[nH]c2ccc(Cn3cncn3)cc12 [RIZATRIPTAN]"
observed_value = "> 30 µM"

[[record]]
molecule = "C/N=C(\\NC)NCc1ccccc1 [BETHANIDINE]"
observed_value = "> 30 µM"

[[record]]
molecule = "O=C(O)c1ccccc1Nc1cc(Cl)ccc1C(=O)O [LOBENZARIT]"
observed_value = "> 30 µM"

[[record]]
molecule = "O=[N+]([O-])c1ccc(O)c2ncccc12 [NITROXOLINE]"
observed_value = "> 30 µM"

[[record]]
molecule = "CC(C)Cc1ccc(C(C)C(=O)O)cc1 (stereo unspecified) [IBUPROFEN]"
observed_value = "> 10 µM"

[[record]]
molecule = "CC(C)N(CCC(C(N)=O)(c1ccccc1)c1ccccn1)C(C)C (stereo unspecified) [DISOPYRAMIDE]"
observed_value = "> 10 µM"

[[record]]
molecule = "[H]/N=C(/N)N/C(=N/[H])NCCc1ccccc1 [PHENFORMIN]"
observed_value = "> 30 µM"

[[record]]
molecule = "Oc1ccc2c(c1)[C@@]13CCCC[C@@]1(O)[C@@H](C2)N(CC1CCC1)CC3 [BUTORPHANOL]"
observed_value = "> 30 µM"

[[record]]
molecule = "CC(C)c1nc(N(C)S(C)(=O)=O)nc(-c2ccc(F)cc2)c1/C=C/[C@@H](O)C[C@@H](O)CC(=O)O [ROSUVASTATIN]"
observed_value = "> 30 µM"

[[record]]
molecule = "CC(=O)N[C@@H](CS)C(=O)O [ACETYLCYSTEINE]"
observed_value = "> 30 µM"

[[record]]
molecule = "CCCC(CCC)C(N)=O [VALPROMIDE]"
observed_value = "> 10 µM"

[[record]]
molecule = "C[C@@H](NCCCc1cccc(C(F)(F)F)c1)c1cccc2ccccc12"
observed_value = "> 30 µM"

[[record]]
molecule = "CCN(CC)C(=O)Nc1ccc(OCC(O)CNC(C)(C)C)c(C(C)=O)c1 (stereo unspecified) [CELIPROLOL]"
observed_value = "> 30 µM"

[[record]]
molecule = "COc1ccc(-c2noc(CC(=O)O)c2-c2ccc(OC)cc2)cc1 [MOFEZOLAC]"
observed_value = "> 30 µM"

[[record]]
molecule = "Nc1ccc(S(=O)(=O)Nc2nccs2)cc1 [SULFATHIAZOLE]"
observed_value = "> 10 µM"

[[record]]
molecule = "Cc1cc(C(C)(C)C)cc(C)c1CC1=NCCN1 [XYLOMETAZOLINE]"
observed_value = "> 30 µM"


---

biological target: 5-hydroxytryptamine receptor 2A (Homo sapiens, UniProt P28223); format: functional, cell-based; further: assay procedure not described here
Sequence (P28223 whole entry): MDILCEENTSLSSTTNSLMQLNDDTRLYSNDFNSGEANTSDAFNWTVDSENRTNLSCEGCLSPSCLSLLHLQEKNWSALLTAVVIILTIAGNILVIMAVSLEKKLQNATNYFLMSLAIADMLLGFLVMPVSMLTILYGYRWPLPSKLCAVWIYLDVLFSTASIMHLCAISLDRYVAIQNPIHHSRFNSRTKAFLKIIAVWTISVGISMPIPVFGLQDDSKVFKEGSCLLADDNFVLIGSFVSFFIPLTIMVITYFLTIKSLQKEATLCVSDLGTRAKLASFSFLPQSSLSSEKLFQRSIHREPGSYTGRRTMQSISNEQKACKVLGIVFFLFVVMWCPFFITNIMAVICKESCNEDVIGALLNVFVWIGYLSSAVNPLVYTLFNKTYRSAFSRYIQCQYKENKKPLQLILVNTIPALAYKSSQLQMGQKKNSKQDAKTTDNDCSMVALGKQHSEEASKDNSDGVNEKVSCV
Listed next: entries and their corresponding AC50.
QUANTITY_KIND: AC50

[[record]]
molecule = "CN(CC1(C)CCCO1)S(=O)(=O)c1ccc(Cl)c(S(N)(=O)=O)c1 (stereo not drawn) [MEFRUSIDE]"
observed_value = "> 30 µM"

[[record]]
molecule = "CCC1(c2ccccc2)CCC(=O)NC1=O (stereo not drawn) [GLUTETHIMIDE]"
observed_value = "> 30 µM"

[[record]]
molecule = "CC(C)[C@H](N)C(=O)OCC(CO)OCn1cnc2c(=O)nc(N)[nH]c21 (stereo partly drawn)"
observed_value = "> 30 µM"

[[record]]
molecule = "CC(C)(C)C(=O)OCC(=O)[C@H]1CC[C@H]2[C@@H]3CCC4=CC(=O)CC[C@]4(C)[C@H]3CC[C@]12C [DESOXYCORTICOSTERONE PIVALATE]"
observed_value = "> 10 µM"

[[record]]
molecule = "CCCCCC(=O)O[C@]1(C(C)=O)CC[C@H]2[C@@H]3CCC4=CC(=O)CC[C@]4(C)[C@H]3CC[C@@]21C [HYDROXYPROGESTERONE CAPROATE]"
observed_value = "> 30 µM"

[[record]]
molecule = "O=[N+]([O-])c1ccc(O)c2ncccc12"
observed_value = "> 30 µM"

[[record]]
molecule = "CC(=O)[C@@]1(O)CC[C@H]2[C@@H]3C=C(Cl)C4=CC(=O)[C@@H]5C[C@@H]5[C@]4(C)[C@H]3CC[C@@]21C"
observed_value = "> 10 µM"

[[record]]
molecule = "CC(C)COCC(CN(Cc1ccccc1)c1ccccc1)N1CCCC1 (stereo not drawn)"
observed_value = "22 µM"

[[record]]
molecule = "C/N=C(\\NC)NCc1ccccc1"
observed_value = "> 30 µM"

[[record]]
molecule = "COc1cc(N)c(Cl)cc1C(=O)NC1CCN(Cc2ccccc2)CC1 [CLEBOPRIDE]"
observed_value = "2.4 µM"

[[record]]
molecule = "CC(C(=O)O)c1ccc2c(c1)[nH]c1ccc(Cl)cc12 (stereo not drawn)"
observed_value = "> 10 µM"

[[record]]
molecule = "CNCc1ccc(-c2[nH]c3cc(F)cc4c3c2CCNC4=O)cc1"
observed_value = "> 10 µM"

[[record]]
molecule = "CC(=O)SC[C@@H](C)C(=O)N1CCC[C@H]1C(=O)N[C@@H](Cc1ccccc1)C(=O)O"
observed_value = "> 30 µM"

[[record]]
molecule = "CCC(C)C(CC)C(N)=O (stereo not drawn) [VALNOCTAMIDE]"
observed_value = "> 30 µM"

[[record]]
molecule = "C#CCOc1ccc(N)cc1C(=O)NCCCC [PARSALMIDE]"
observed_value = "30 µM"

[[record]]
molecule = "Clc1ccc(C(Cn2ccnc2)OCc2ccsc2Cl)c(Cl)c1 (stereo not drawn)"
observed_value = "19 µM"

[[record]]
molecule = "OC[C@H]1O[C@@](CO)(O[C@H]2O[C@H](CO)[C@@H](O)[C@H](O)[C@H]2O)[C@@H](O)[C@@H]1O"
observed_value = "> 30 µM"

[[record]]
molecule = "Cc1cccc(N2CC(CO)OC2=O)c1 (stereo not drawn)"
observed_value = "> 30 µM"

